- system.tested: LK35.2-hPD-L1 cells / PE-labeled PD-1-Ig (Homo sapiens, UniProt Q9NZQ7)
- Construct: expressed in transfected cells; host or cells: LK35.2 mouse B cell line
- Sequence (Q9NZQ7 19-290): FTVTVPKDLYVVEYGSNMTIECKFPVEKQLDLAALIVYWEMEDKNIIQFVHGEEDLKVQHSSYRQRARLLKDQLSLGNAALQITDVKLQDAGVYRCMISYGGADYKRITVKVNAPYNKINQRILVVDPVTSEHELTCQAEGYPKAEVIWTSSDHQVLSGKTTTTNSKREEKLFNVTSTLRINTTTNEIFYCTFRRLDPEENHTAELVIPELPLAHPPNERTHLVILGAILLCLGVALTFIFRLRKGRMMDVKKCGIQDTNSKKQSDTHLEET
- experiment: LK35.2-hPD-L1 cell binding high-content screening assay
- Assay type: cell-based
- measurement.conditions: cell binding assay, cell line not given; cluster symbol; read-out: CBA IC50 cluster
pIC50: −log10 of the molar value. Positions of bridges follow the written chain, without caps; N, C: chain ends. Non-standard residues stand in square brackets, D forms with d. Residues, ends and D or L forms follow the SMILES beside them. ξ: configuration not given here. Bta = N[C@@H](Cc1csc2ccccc12)C(=O)O; NMeNle = CCCC[C@H](NC)C(=O)O; NMeA = CN[C@@H](C)C(=O)O; ξC = NC(CS)C(=O)O
reported.property: pIC50

1. CCCC[C@H]1C(=O)N(C)[C@@H](CCCC)C(=O)N[C@@H](CCCNC(=N)N)C(=O)NC(C(=O)NCC(N)=O)CSCC(=O)N[C@@H](Cc2ccc(O)cc2)C(=O)N(C)[C@@H](C)C(=O)N[C@@H](CC(N)=O)C(=O)N2CCC[C@H]2C(=O)N[C@@H](CO)C(=O)N[C@@H](CC(C)C)C(=O)N2CCC[C@H]2C(=O)N[C@@H](Cc2c[nH]c3ccccc23)C(=O)N[C@@H](CO)C(=O)N[C@@H](Cc2csc3ccccc23)C(=O)N1C (stereo partly shown) [Example 9072] ({CH2CO}-Y[NMeA]NPSLPWS[Bta][NMeNle][NMeNle]R[ξC]G-NH2; thioether N-14) : 8.33 to 9.80

* * *

- system.tested: Human PD-L1/PD-1 (Homo sapiens)
- Construct: made in house; host or cells: HEK293T
- Sequence (Q9NZQ7 with tags, fused parts or gaps): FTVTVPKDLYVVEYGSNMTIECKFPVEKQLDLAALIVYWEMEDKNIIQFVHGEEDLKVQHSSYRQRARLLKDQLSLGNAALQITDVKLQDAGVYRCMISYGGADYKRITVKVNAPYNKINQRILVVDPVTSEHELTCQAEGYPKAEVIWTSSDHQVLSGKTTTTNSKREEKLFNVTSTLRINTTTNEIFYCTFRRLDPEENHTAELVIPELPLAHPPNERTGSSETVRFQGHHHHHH
- experiment: HTRF PD-1-Ig/PD-L1-His binding assay (human PD-L1)
- measurement.conditions: cluster symbol; read-out: HTRF IC50 cluster
Positions of bridges follow the written chain, without caps; N, C: chain ends. Non-standard residues stand in square brackets, D forms with d. Residues, ends and D or L forms follow the SMILES beside them. ξ: configuration not given here. Phe(4-CH2NH2) = NCc1ccc(C[C@H](N)C(=O)O)cc1; Phe(3-Cl) = N[C@@H](Cc1cccc(Cl)c1)C(=O)O; Phe(4-Cl) = N[C@@H](Cc1ccc(Cl)cc1)C(=O)O; Phe(4-F) = N[C@@H](Cc1ccc(F)cc1)C(=O)O; Bta = N[C@@H](Cc1csc2ccccc12)C(=O)O; Hyp = O=C(O)[C@@H]1C[C@@H](O)CN1; NMeF = CN[C@@H](Cc1ccccc1)C(=O)O; NMeNle = CCCC[C@H](NC)C(=O)O; NMeA = CN[C@@H](C)C(=O)O; ξC = NC(CS)C(=O)O; Sar = CNCC(=O)O
reported.property: IC50

1) CCCC[C@H]1C(=O)N(C)[C@@H](CCCC)C(=O)N[C@@H](CCCNC(=N)N)C(=O)N[C@H](C(=O)NCC(N)=O)CSCC(=O)N[C@@H](Cc2ccccc2)C(=O)N(C)[C@@H](C)C(=O)N[C@@H](CC(N)=O)C(=O)N2CCC[C@H]2C(=O)N[C@@H](Cc2cnc[nH]2)C(=O)N[C@@H](CC(C)C)C(=O)N2C[C@H](O)C[C@H]2C(=O)N[C@@H](Cc2c[nH]c3ccccc23)C(=O)N[C@@H](CO)C(=O)N[C@@H](Cc2c[nH]c3ccccc23)C(=O)N1C [Example 1087] ({CH2CO}-F[NMeA]NPHL[Hyp]WSW[NMeNle][NMeNle]RCG-NH2; thioether N-14) : 0.385 to 6.74 nM
2) CCCC[C@H]1C(=O)N(C)[C@@H](CCCC)C(=O)N[C@@H](CCCNC(=N)N)C(=O)NC(C(=O)NCC(N)=O)CSCC(=O)N[C@@H](Cc2ccc(O)cc2)C(=O)N(C)[C@@H](C)C(=O)N[C@@H](CC(N)=O)C(=O)N2CCC[C@H]2C(=O)N[C@@H](CC(N)=O)C(=O)N[C@@H](CC(C)C)C(=O)N2CCC[C@H]2C(=O)N[C@@H](Cc2c[nH]c3ccccc23)C(=O)N[C@@H](CO)C(=O)N[C@@H](Cc2c[nH]c3ccccc23)C(=O)N1C (some centres unmarked) [Example 9059] ({CH2CO}-Y[NMeA]NPNLPWSW[NMeNle][NMeNle]R[ξC]G-NH2; thioether N-14) : 6.76 to 30.3 nM
3) CCCC[C@H]1C(=O)N(C)[C@@H](C)C(=O)N[C@@H](CCCNC(=N)N)C(=O)NC(C(=O)NCC(N)=O)CSCC(=O)N[C@@H](Cc2ccc(O)cc2)C(=O)N(C)[C@@H](C)C(=O)N[C@@H](CC(N)=O)C(=O)N2CCC[C@H]2C(=O)N[C@@H](CO)C(=O)N[C@@H](CC(C)C)C(=O)N2CCC[C@H]2C(=O)N[C@@H](Cc2c[nH]c3ccccc23)C(=O)N[C@@H](CO)C(=O)N[C@@H](Cc2c[nH]c3ccccc23)C(=O)N1C (some centres unmarked) [Example 9110] ({CH2CO}-Y[NMeA]NPSLPWSW[NMeNle][NMeA]R[ξC]G-NH2; thioether N-14) : 0.385 to 6.74 nM
4) CCCC[C@H]1C(=O)N(C)CC(=O)N[C@@H](CC(=O)O)C(=O)N[C@@H](C(C)C)C(=O)N(C)[C@@H](Cc2ccccc2)C(=O)N[C@@H](Cc2ccc(O)cc2)C(=O)N(C)CC(=O)N[C@@H](Cc2ccc(CN)cc2)C(=O)N[C@@H](Cc2ccc(O)cc2)C(=O)N[C@@H](CC(C)C)C(=O)N[C@H](C(=O)NCC(N)=O)CSCC(=O)N[C@@H](Cc2ccccc2)C(=O)N(C)[C@@H](Cc2ccccc2)C(=O)N1C [Example 3513] ({CH2CO}-F[NMeF][NMeNle][Sar]DV[NMeF]Y[Sar][Phe(4-CH2NH2)]YLCG-NH2; thioether N-13) : > 30.5 nM
5) CCCC[C@H]1C(=O)N(C)CC(=O)N[C@@H](CC(=O)O)C(=O)N[C@@H](C(C)C)C(=O)N(C)[C@@H](Cc2ccccc2)C(=O)N[C@@H](Cc2ccc(O)cc2)C(=O)N(C)CC(=O)N[C@@H](Cc2c[nH]c3ccccc23)C(=O)N[C@@H](Cc2ccc(O)cc2)C(=O)N[C@@H](CC(C)C)C(=O)N[C@H](C(=O)NCC(N)=O)CSCC(=O)N[C@@H](Cc2ccc(F)cc2)C(=O)N(C)[C@@H](Cc2ccccc2)C(=O)N1C [Example 3520] ({CH2CO}-[Phe(4-F)][NMeF][NMeNle][Sar]DV[NMeF]Y[Sar]WYLCG-NH2; thioether N-13) : 6.76 to 30.3 nM
6) CCCC[C@H]1C(=O)N(C)[C@@H](CCCC)C(=O)N[C@@H](CCCNC(=N)N)C(=O)N[C@H](C(=O)NCC(N)=O)CSCC(=O)N[C@@H](Cc2ccc(O)cc2)C(=O)N(C)[C@@H](C)C(=O)N[C@@H](CC(N)=O)C(=O)N2CCC[C@H]2C(=O)N[C@@H](Cc2cnc[nH]2)C(=O)N[C@@H](CC(C)C)C(=O)N2CCC[C@H]2C(=O)N[C@@H](Cc2c[nH]c3ccccc23)C(=O)N[C@@H](CO)C(=O)N[C@@H](Cc2c[nH]c3ccccc23)C(=O)N1C [Example 1016] ({CH2CO}-Y[NMeA]NPHLPWSW[NMeNle][NMeNle]RCG-NH2; thioether N-14) : 0.385 to 6.74 nM
7) CCCC[C@H]1C(=O)N(C)CC(=O)N[C@@H](CC(=O)O)C(=O)N[C@@H](C(C)C)C(=O)N(C)[C@@H](Cc2ccccc2)C(=O)N[C@@H](Cc2ccc(O)cc2)C(=O)N(C)CC(=O)N[C@@H](Cc2c[nH]c3ccccc23)C(=O)N[C@@H](Cc2ccc(O)cc2)C(=O)N[C@@H](CC(C)C)C(=O)N[C@H](C(=O)NCC(N)=O)CSCC(=O)N[C@@H](Cc2cccc(Cl)c2)C(=O)N(C)[C@@H](Cc2ccccc2)C(=O)N1C [Example 3086] ({CH2CO}-[Phe(3-Cl)][NMeF][NMeNle][Sar]DV[NMeF]Y[Sar]WYLCG-NH2; thioether N-13) : 0.385 to 6.74 nM
8) CCCC[C@H]1C(=O)N(C)CC(=O)N[C@@H](CC(=O)O)C(=O)N[C@@H](C(C)C)C(=O)N(C)[C@@H](Cc2ccccc2)C(=O)N[C@@H](Cc2ccc(CN)cc2)C(=O)N(C)CC(=O)N[C@@H](Cc2csc3ccccc23)C(=O)N[C@@H](Cc2ccc(O)cc2)C(=O)N[C@@H](CC(C)C)C(=O)N[C@H](C(=O)NCC(N)=O)CSCC(=O)N[C@@H](Cc2ccc(Cl)cc2)C(=O)N(C)[C@@H](Cc2ccccc2)C(=O)N1C [Example 3119] ({CH2CO}-[Phe(4-Cl)][NMeF][NMeNle][Sar]DV[NMeF][Phe(4-CH2NH2)][Sar][Bta]YLCG-NH2; thioether N-13) : 6.76 to 30.3 nM
